tested on: Influenza A virus; assay: Antiviral activity against Influenza A virus (A/Puerto Rico/8/34(H1N1)) infected in MDCK cells assessed as virus yield after 48 hrs end-point dilution method; type: functional, organism-based; settings: A/Puerto Rico/8/1934(H1N1)

{"molecule": "CC(N)C12CC3CC(C1)CC(n1cnc([N+](=O)[O-])n1)(C3)C2.Cl (stereo not given)", "EC50 / µg/mL": 120}
{"molecule": "CCc1nnn(C23CC4CC(CC(C(C)N)(C4)C2)C3)n1.Cl (stereo not given)", "EC50 / µg/mL": 6}
{"molecule": "Cc1nnn(C23CC4CC(CC(N)(C4)C2)C3)n1.Cl", "EC50 / µg/mL": 13}
{"molecule": "OC12CC3CC(C1)CC(N=C=S)(C3)C2", "EC50 / µg/mL": 150}
{"molecule": "OC12CC3CC(C1)CC(n1nn[nH]c1=S)(C3)C2", "EC50 / µg/mL": 8}
